Data provenance: patent US8802849B2

For each of the compounds below, state its inhibition at 10 µM.
target-desc: P70S6K (Homo sapiens, UniProt P23443)
Sequence (P23443 whole entry): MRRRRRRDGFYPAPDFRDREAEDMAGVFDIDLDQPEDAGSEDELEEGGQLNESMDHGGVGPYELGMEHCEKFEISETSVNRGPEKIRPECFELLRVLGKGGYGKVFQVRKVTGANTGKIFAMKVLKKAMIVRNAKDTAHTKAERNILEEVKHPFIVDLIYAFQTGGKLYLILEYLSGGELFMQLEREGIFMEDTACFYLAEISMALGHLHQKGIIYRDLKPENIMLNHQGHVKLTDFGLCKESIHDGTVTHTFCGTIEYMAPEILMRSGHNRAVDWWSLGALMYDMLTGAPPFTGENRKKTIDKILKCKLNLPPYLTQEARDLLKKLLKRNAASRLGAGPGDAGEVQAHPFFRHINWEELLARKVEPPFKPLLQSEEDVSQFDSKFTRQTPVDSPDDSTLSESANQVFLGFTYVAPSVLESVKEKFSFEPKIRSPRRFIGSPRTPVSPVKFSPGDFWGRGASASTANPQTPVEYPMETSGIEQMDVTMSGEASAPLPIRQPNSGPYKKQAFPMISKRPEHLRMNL
assay-info: P70S6K kinase assay
Assay type: biochemical
details: 10 μM compound; read-out: P70S6K percent of inhibition

Qu. Can you look up the measured inhibition at 10 µM of N#Cc1cccc(Nc2ncnc3sc4c(c23)CCCC4)c1 for me?
Ans. 1%

Qu. # iterate: Nc1ccc(Nc2ncnc3sc4c(c23)CCCC4)cc1
Ans. 7%

Qu. # iterate: Clc1cccc(Nc2nc(C3CC3)nc3sc4ccccc4c23)c1
Ans. 7%

Qu. # iterate: Brc1cccc(Nc2ncnc3sc4c(c23)CCCC4)c1
Ans. 4%

Qu. # iterate: Nc1cccc(Nc2ncnc3sc4c(c23)CCCC4)c1
Ans. 2%

Qu. # iterate: Fc1cccc(Nc2ncnc3sc4ccccc4c23)c1
Ans. 7%

Qu. # iterate: Fc1cccc(Nc2nc(C3CC3)nc3sc4ccccc4c23)c1
Ans. 8%

Qu. # iterate: Brc1cccc(Nc2nc(C3CC3)nc3sc4ccccc4c23)c1
Ans. 2%

Qu. # iterate: Clc1ccc(Nc2ncnc3sc4c(c23)CCCC4)cc1
Ans. -17%

Qu. # iterate: Fc1ccccc1Nc1ncnc2sc3c(c12)CCCC3
Ans. -23%

Qu. # iterate: Oc1cccc(Nc2nc(C3CC3)nc3sc4c(c23)CCCC4)c1
Ans. 6%

Qu. # iterate: N#Cc1cccc(Nc2nc(C3CC3)nc3sc4c(c23)CCCC4)c1
Ans. 2%

Qu. # iterate: Clc1cccc(Nc2ncnc3sc4ccccc4c23)c1
Ans. 5%

Qu. # iterate: COc1cccc(Nc2nc(C3CC3)nc3sc4c(c23)CCCC4)c1
Ans. 4%

Qu. # iterate: Clc1cccc(Nc2nc(C3CC3)nc3sc4c(c23)CCCC4)c1
Ans. 0%

Qu. # iterate: Brc1cccc(Nc2ncnc3sc4ccccc4c23)c1
Ans. -1%

Qu. # iterate: O=[N+]([O-])c1cccc(Nc2nc(C3CC3)nc3sc4c(c23)CCCC4)c1
Ans. 9%

Qu. # iterate: FC(F)(F)c1cccc(Nc2nc(C3CC3)nc3sc4c(c23)CCCC4)c1
Ans. 20%
